Measured values drawn from the supplement of paper PMC4166925 for this set.

List of PBM E-score of 8-mer values.
# System: PmTbr T-box DNA-binding domain (GST fusion);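 also: 200 nM protein in PBS on universal arrays averaged over duplicate arrays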
# Sequence: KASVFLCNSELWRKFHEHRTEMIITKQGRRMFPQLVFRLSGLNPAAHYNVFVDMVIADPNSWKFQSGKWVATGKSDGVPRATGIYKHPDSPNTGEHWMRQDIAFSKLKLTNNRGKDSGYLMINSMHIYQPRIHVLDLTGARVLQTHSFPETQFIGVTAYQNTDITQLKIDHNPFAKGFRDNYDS
# protocol text: PBM E-score of 8-mer (E-score (dimensionless, -0.5 to 0.5)); Tbr is Tbrain of the sea star Patiria miniata (Pm) or the sea urchin Strongylocentrotus purpuratus (Sp); higher = stronger binding preference
# condition: the construct has about 5 more residues each side
Over roughly 33,000 sequences, “E-score (dimensionless, -0.5 to 0.5)” has its median near -0.049; the highest 2% begin near 0.37. The full list was thinned out, with the highest values kept by preference.
quantity name: PBM E-score of 8-mer

>>> observed_value("ACTAAACT")
-0.221
>>> observed_value("GTAGAGCA")
-0.196
>>> observed_value("AAGTGTCA")
0.473
>>> observed_value("CGGTTTGA")
-0.193
>>> observed_value("CTTAGGAA")
-0.24
>>> observed_value("GAGTGTCC")
-0.0246
>>> observed_value("CAGAACCA")
-0.232
>>> observed_value("CCTCACAG")
0.127
>>> observed_value("ACTCACAT")
-0.0309
>>> observed_value("GACATCGA")
-0.0159
>>> observed_value("TAGTGTCA")
0.395
>>> observed_value("CAGTGTCG")
0.289
>>> observed_value("CTCTTGAA")
-0.374
>>> observed_value("CAGTGTCA")
0.31
>>> observed_value("AGTATTGG")
-0.0858
>>> observed_value("ATAACGCC")
0.237
>>> observed_value("CCTCACAA")
0.155
>>> observed_value("CCCGAATC")
0.00343
>>> observed_value("CTATTATC")
-0.101
>>> observed_value("GTAAGCAA")
-0.113
>>> observed_value("GGGTATTA")
-0.139
>>> observed_value("ATATACGG")
-0.038
>>> observed_value("CGTGTAGA")
0.0938
>>> observed_value("TCGTGTCA")
0.305
>>> observed_value("CCATGGCC")
-0.263
>>> observed_value("AACTTAGA")
-0.157
>>> observed_value("ACCACGCG")
0.122
>>> observed_value("CCTTTCGA")
-0.06
>>> observed_value("GATACAGC")
-0.197
>>> observed_value("TTAGTAAA")
-0.0101
>>> observed_value("GCTCACAA")
0.132
>>> observed_value("AGTTGCGA")
0.412
>>> observed_value("GACGCGTA")
0.0611
>>> observed_value("AAGTGTCG")
0.444
>>> observed_value("GACTGAGA")
-0.181
>>> observed_value("GGACGCAC")
-0.0479
>>> observed_value("GATTGTCA")
0.298
>>> observed_value("AAGCGAAT")
-0.167
>>> observed_value("GGGTAGGA")
-0.205
>>> observed_value("AGTTGCGG")
0.0771
>>> observed_value("ACTCACAC")
0.461
>>> observed_value("AAGATCGA")
-0.152
>>> observed_value("ACTCACAG")
0.314
>>> observed_value("GACGATCC")
-0.0686
>>> observed_value("CCAAGTGA")
0.146
>>> observed_value("AAGTGTCT")
0.329
